test system: H3K4me3 mark; assay: Histone lysine demethylase immunofluorescence assay, non-transfected U2OS cells; type: cell-based; settings: Homo sapiens, staining of the H3K4me3 mark, 20 hours incubation with compound
pIC50: −log10 of the molar value.
Readout kind: pIC50

Take a look at these entries with their results.
> print(dat)
                                   compound  readout.kind  reported.result
1  CC(C#N)NCc1ccnc(CNCCCN(C)C)c1 (stereo not shown)         pIC50           > 6.60
2  CCN(CCN1CCC1)C(=O)CNCc1cc(CNC(=O)C(F)(F)F)ccn1         pIC50           > 6.60

Recorded pIC50 for CN(C)CC1CCC(CNCc2cc(/C=N/C3CC3)ccn2)CC1 (stereo not shown) , please?
> 6.60

Please report the recorded pIC50 for "CCN(CCCN(C)C)C(=O)CNCc1cc(/C=N/CCO)ccn1" .
> 6.60

Look at this compound and give its reported pIC50. "CCN(CC)CCCCNCc1cc(C=NNc2ccc(C#N)cc2)ccn1"
5.60 to 6.60

Sample "CN(C)C/C=C\CNCc1cc(C=O)ccn1" — what was its pIC50?
5.60 to 6.60

Would you kindly share the measured pIC50 for "C(=N\C1CC1)/c1ccnc(CNCCCCN2CCC2)c1" ?
> 6.60

Item "CCN(CC)CCCCN(Cc1cc(C=O)ccn1)C(=O)C(F)(F)F" has what recorded pIC50?
> 6.60

Could you tell me which pIC50 is on file for "CCN(CCN(C)C)C(=O)CNCc1cc(/C=N/CC2(CO)CC2)ccn1" ?
> 6.60

Recorded pIC50 for "CCN(CC)CCCCN(Cc1cc(CNC(=O)C(F)(F)F)ccn1)C(=O)C(F)(F)F" , please?
> 6.60

Entry "CN(C)C/C=C/CNCc1cc(/C=N/C2CC2)ccn1" : reported pIC50 = ?
> 6.60

Recorded pIC50 for "CCN(CCN(C)C)C(=O)CNCc1cc(CNC(=O)C(F)(F)CC)ccn1" , please?
< 5.60

Item CCN(CCN(C)C)C(=O)CNCc1cc(C2OCC3(CC3)CN2C(=O)C(F)(F)F)ccn1 (stereo not shown) has what recorded pIC50?
> 6.60

* * *

biological target: UniProt Q9UPP1
Sequence (Q9UPP1 37-440 limits assumed): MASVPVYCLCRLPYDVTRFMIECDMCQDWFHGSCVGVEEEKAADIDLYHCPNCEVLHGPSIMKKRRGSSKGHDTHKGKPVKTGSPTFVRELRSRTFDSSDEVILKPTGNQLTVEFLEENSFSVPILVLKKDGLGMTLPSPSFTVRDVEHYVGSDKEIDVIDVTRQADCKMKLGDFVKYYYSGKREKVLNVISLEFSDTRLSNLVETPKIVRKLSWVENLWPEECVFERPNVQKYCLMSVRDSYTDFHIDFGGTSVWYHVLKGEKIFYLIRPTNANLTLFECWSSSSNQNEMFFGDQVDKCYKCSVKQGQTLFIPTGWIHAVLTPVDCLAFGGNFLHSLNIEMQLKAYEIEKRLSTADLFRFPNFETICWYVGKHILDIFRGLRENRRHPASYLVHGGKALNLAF
pIC50: −log10 of the molar value.
Readout kind: pIC50

Which pIC50 reading was recorded for the compound CN(C)CCNCc1cc(CNC(C#N)C2CC2)ccn1 (centres unmarked) ?
< 5.60

Endpoint output: pIC50 of "CN(C)C(=O)CNCc1cc(CNCC#N)ccn1" . Value?
< 5.60

What does the data say about its pIC50? Entry: "CON=Cc1ccnc(CNCCCN(C)C)c1"
< 5.60

I am curious: what pIC50 value has been reported for CCN1CCCC1CNC(=O)CNCc1cc(/C=N/C2CC2)ccn1 (centres unmarked) ?
5.60 to 6.60

Entry "CCN(CC)CCCCNCc1cc(/C=N/CCO)ccn1" has what pIC50?
< 5.60

* * *

Target: KDM4A (JMJD2A) (Homo sapiens, UniProt O75164)
Sequence (O75164 1-350): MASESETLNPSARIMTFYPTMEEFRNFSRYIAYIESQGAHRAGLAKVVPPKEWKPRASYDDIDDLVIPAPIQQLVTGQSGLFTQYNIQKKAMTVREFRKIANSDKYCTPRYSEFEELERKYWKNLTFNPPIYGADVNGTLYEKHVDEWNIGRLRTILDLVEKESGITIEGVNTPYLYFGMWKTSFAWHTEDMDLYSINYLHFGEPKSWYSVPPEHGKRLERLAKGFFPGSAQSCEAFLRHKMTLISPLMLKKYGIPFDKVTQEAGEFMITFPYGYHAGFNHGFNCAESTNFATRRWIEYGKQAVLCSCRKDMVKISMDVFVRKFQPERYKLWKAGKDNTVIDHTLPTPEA
Readout kind: IC50

> print(dat)
                                   compound                                       tgt  readout.kind  reported.result
1    CCN(CC)CCCCNCc1cc(CNC(=O)C(F)(F)F)ccn1  KDM4A (JMJD2A) (Homo sapiens, UniProt O75164)          IC50   250 to 2500 nM
2  O=Cc1ccnc(CNCC(=O)N2CCC(Cc3ccccc3)CC2)c1  KDM4A (JMJD2A) (Homo sapiens, UniProt O75164)          IC50   250 to 2500 nM
3          CN(C)CCCCCNCc1cc(/C=N/C2CC2)ccn1  KDM4A (JMJD2A) (Homo sapiens, UniProt O75164)          IC50        > 2500 nM
4  CCN(CC)CCCCN(Cc1cc(C=O)ccn1)C(=O)C(F)(F)F  KDM4A (JMJD2A) (Homo sapiens, UniProt O75164)          IC50   250 to 2500 nM
5           CNCc1ccnc(CNCCCN(C)Cc2ccccc2)c1  KDM4A (JMJD2A) (Homo sapiens, UniProt O75164)          IC50        > 2500 nM

Name the reported IC50 value associated with the compound CN(C)CC1CCC(CNCc2cc(/C=N/C3CC3)ccn2)CC1 (stereo not shown)
250 to 2500 nM

Which value of IC50 has been reported for "CN(C)C(=O)CNCc1cc(/C=N\C2CC2)ccn1" in the records?
< 250 nM

Any idea what its IC50 is? The compound is "CCN(CC)CCCCNCc1cc(/C=N/CC(F)(F)C(F)(F)F)ccn1"
> 2500 nM

What does the data say about its IC50? Entry: CN(C)CCNCc1cc(CNC(C#N)C2CC2)ccn1 (stereo not shown)
> 2500 nM

Entry "CN(C)CCNCc1cc(C=O)ccn1" has what IC50?
250 to 2500 nM

Given "CCN(CC)C(=O)CNCc1cc(C=O)ccn1" , state its recorded IC50.
> 2500 nM

Given the entry "CN(C)C(=O)CNCc1cc(/C=N/CCC2CCCCC2)ccn1" , report its measured IC50.
250 to 2500 nM

Name the recorded IC50 for "CN(C)CCCCNCc1cc(CN)ccn1" .
> 2500 nM

Quick one: IC50 for "CON=Cc1ccnc(CNCCCN(C)C)c1" ?
250 to 2500 nM

Tell me the measured IC50 of "CN(C)CCCCNCc1cc(/C=N\C2CC2)ccn1" , please.
> 2500 nM

Param item = "CCN(CC)CCCCN(Cc1cc(CNC(=O)C(F)(F)F)ccn1)C(=O)C(F)(F)F" ; retrieve measured IC50.
250 to 2500 nM

* * *

Target: KDM5B (PLU-1) (Homo sapiens)
Sequence (Q9UGL1 1-809): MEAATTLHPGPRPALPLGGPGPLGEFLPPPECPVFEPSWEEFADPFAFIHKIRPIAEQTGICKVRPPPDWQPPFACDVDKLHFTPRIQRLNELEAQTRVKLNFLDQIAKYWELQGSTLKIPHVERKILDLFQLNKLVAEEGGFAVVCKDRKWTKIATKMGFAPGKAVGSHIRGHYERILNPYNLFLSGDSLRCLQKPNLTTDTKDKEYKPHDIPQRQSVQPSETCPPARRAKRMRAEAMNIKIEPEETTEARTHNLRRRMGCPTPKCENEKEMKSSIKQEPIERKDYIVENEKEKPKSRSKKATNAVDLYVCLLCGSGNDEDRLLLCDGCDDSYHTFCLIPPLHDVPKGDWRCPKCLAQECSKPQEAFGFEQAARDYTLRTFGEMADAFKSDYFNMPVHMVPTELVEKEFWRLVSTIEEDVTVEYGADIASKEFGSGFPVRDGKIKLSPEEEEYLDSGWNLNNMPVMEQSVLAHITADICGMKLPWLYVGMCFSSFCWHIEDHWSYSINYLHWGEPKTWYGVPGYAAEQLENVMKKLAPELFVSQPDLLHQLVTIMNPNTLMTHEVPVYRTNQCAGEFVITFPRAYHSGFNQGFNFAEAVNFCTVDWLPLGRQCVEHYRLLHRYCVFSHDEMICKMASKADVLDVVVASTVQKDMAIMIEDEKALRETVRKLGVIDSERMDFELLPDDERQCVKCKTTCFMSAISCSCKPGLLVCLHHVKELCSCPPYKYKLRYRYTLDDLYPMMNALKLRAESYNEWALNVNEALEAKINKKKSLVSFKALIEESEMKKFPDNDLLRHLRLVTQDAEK
Experiment: Histone lysine demethylase AlphaLISA assay, KDM5B
Format: biochemical
Conditions: read-out: KDM5B HDME Inhibition IC50
Procedure: Assays are performed analogously to the protocol described by PerkinElmer (Roy et al. PerkinElmer Technical Note: AlphaLISA #12, April 2011) Enzymes are dissolved in enzyme buffer and incubated for 10 min before being added to 3% DMSO solutions of compounds in enzyme buffer. Incubated for another 10 minutes, before substrate solution is added and the reaction mixture is incubated at room temperature. […] After incubation at room temperature in the dark the plates are read. […]
pIC50: −log10 of the molar value.
Each entry below lists one item and its recorded pIC50 value.

Please review the following examples before continuing.
> print(dat)
                                   molecule                           tgt  reported.result
1  CCN(CC)CCCCNCc1cc(C2NCC3(CCCC3)CO2)ccn1 (stereo not shown)  KDM5B (PLU-1) (Homo sapiens)     5.60 to 6.60
2        C(=N\C1CC1)/c1ccnc(CNCCCCN2CCC2)c1  KDM5B (PLU-1) (Homo sapiens)           > 6.60
3  O=C(CNCc1cc(/C=N/C2CC2)ccn1)N1CCC(Cc2ccccc2)CC1  KDM5B (PLU-1) (Homo sapiens)           > 6.60

Which pIC50 value is on record for CCN(CCN(C)C)C(=O)CNCc1cc(C2OCC(Cc3ccccc3)CN2C(=O)C(F)(F)F)ccn1 (stereo not shown) ?
> 6.60

Requested read-out: pIC50. Entry: "CN(C)C(=O)CNCc1cc(CNCCF)ccn1"
5.60 to 6.60

For the molecule "CN(C)CCC/N=C/c1ccnc(CNCCCN(C)C)c1" , what pIC50 is on record?
> 6.60

# input molecule: "CCN(CCC#N)C(=O)CNCc1cc(/C=N/CCO)ccn1" ; wanted: its pIC50
> 6.60

Any idea what pIC50 was measured for "CCN(CC)CCCCNC(=O)CNCc1cc(/C=N/C2CC2)ccn1" ?
> 6.60

Endpoint output: pIC50 of CCN(CC)CCCCNCc1cc(/C=N/CC(CO)Cc2ccccc2)ccn1 (stereo not shown) . Value?
> 6.60

Could you share which pIC50 value was measured for "CCN(CC)CCCCNCc1cc(/C=N/CCOC)ccn1" ?
> 6.60

For "CCCCCCCC/N=C/c1ccnc(CNCC(=O)N(CC)CC)c1" , what is its reported pIC50?
> 6.60

State the recorded pIC50 for this entry: "CCN(CC)CCCCNCc1cc(/C=N/CCCO)ccn1"
> 6.60

Give the measured pIC50 of "C#CCN(C)C(=O)CNCc1cc(/C=N/C2CC2)ccn1" .
5.60 to 6.60

Field request: pIC50 | item: CCN(CC)CCCCNCc1cc(/C=N/CC(O)Cc2ccccc2)ccn1 (stereo not shown)
5.60 to 6.60

Please give the measured pIC50 for this molecule: "CN(C)C/C=C/CNCc1cc(C=O)ccn1"
> 6.60

Name the recorded pIC50 for "CCN(CC)CCCCNCc1cc(CNC(=O)C(=O)O)ccn1" .
> 6.60
